# protein stability index per entry
B1: CLPTM1 (parent)
chain: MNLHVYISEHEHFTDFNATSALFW

- Variants of: B1
- experiment-summary: protein stability index of a GFP-peptide fusion (GPS, HEK-293T) (PSI 1-6); higher = more stable;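 further: lentivirally expressed fusions sorted by FACS into six bins by GFP to DsRed ratio, PSI derived from sequencing read proportions per bin multiplied by bin number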
- measurement-conditions: c terminus: a fixed tail appended
Number only, please.

Here's what some known entries look like.
I7E = 2.48
T19M = 1.52

Endpoint output: protein stability index of A21F . Value?
1.95

Consider the variant Y6R and give its measured protein stability index.
3.35

Fill in: protein stability index of E11A is ___
1.98

Sample S8P — what was its protein stability index?
3.32

Which protein stability index is listed for N17H ?
2.13

Consider the variant shown here: F13N What is its recorded protein stability index?
3.8

protein stability index for I7R ?
3.14

Find the recorded protein stability index belonging to H10M and report it.
2.73

Recorded protein stability index for T19I , please?
3.09

Fill blank: measured protein stability index of the variant I7K is ____.
2.96

Entry N17F has what protein stability index?
2.72

Using the record for F13V , report its protein stability index.
2.63

Please look up its protein stability index: H12M
2.39
